Assay: self-splicing fitness, log relative to wild type (ln ratio); higher = more splicing; Tetrahymena group I intron in knt gene, E. coli kanamycin selection, DiMSum; sequences stand for … in CUCUCU…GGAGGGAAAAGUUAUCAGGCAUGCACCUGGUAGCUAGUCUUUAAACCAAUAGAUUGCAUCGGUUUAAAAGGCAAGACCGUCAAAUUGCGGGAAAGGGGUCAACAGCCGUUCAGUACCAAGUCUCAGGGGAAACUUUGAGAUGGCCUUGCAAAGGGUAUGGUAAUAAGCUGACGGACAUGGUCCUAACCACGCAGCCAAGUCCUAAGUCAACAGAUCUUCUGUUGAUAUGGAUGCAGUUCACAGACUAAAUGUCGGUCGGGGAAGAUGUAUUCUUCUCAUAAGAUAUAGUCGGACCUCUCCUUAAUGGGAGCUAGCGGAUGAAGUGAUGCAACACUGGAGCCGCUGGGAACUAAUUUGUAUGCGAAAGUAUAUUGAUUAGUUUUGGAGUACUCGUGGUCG;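 note: selection with 25 µg/mL kanamycin versus none on LB agar overnight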
Conditions: 30 °C
RECORDED_ENDPOINT: self-splicing fitness (ln)
// response body must contain only the number

Some solved entries appear below for comparison.
INSERT INTO results (sequence, recorded_endpoint, reported_result) VALUES
  ('AUACAGCAAUAUUACGCCCC', 'self-splicing fitness (ln)', -1.47),
  ('CCAGAGCAAUAUUACGUUUC', 'self-splicing fitness (ln)', -3.23),
  ('AACUAGCAAUAUUACGUUUC', 'self-splicing fitness (ln)', -3.35),
  ('AAGAAGCAAUAUUACGUGUU', 'self-splicing fitness (ln)', -2.15),
  ('ACCUAGCAAUAUUACGGUAU', 'self-splicing fitness (ln)', -3.08);

*Q* Quick one: self-splicing fitness (ln) for `AGGCAGCAAUAUUACGAGUA` ?
*A* -1.94

*Q* Quick one: self-splicing fitness (ln) for `ACUUAGCAAUAUUACGCCAC` ?
*A* -3.2

*Q* Quick one: self-splicing fitness (ln) for `GAAUAGCAAUAUUACGGUGU` ?
*A* -3

*Q* Quick one: self-splicing fitness (ln) for `GACCAGCAAUAUUACGAGCG` ?
*A* -2.08

*Q* Quick one: self-splicing fitness (ln) for `AGAUAGCAAUAUUACGCAUA` ?
*A* -2.23

*Q* Quick one: self-splicing fitness (ln) for `UGCGAGCAAUAUUACGGCUG` ?
*A* -1.04

*Q* Quick one: self-splicing fitness (ln) for `CUAGAGCAAUAUUACGGUCG` ?
*A* 0.342

*Q* Quick one: self-splicing fitness (ln) for `UCUAAGCAAUAUUACGAUAG` ?
*A* -1.15

*Q* Quick one: self-splicing fitness (ln) for `GACUAGCAAUAUUACGCCUU` ?
*A* -0.605

*Q* Quick one: self-splicing fitness (ln) for `CGCAAGCAAUAUUACGUGUC` ?
*A* -2.39

*Q* Quick one: self-splicing fitness (ln) for `CAUUAGCAAUAUUACGAGUG` ?
*A* -3.06

*Q* Quick one: self-splicing fitness (ln) for `CUUAAGCAAUAUUACGGUGU` ?
*A* -3.31

*Q* Quick one: self-splicing fitness (ln) for `GCCGAGCAAUAUUACGUAUG` ?
*A* -3.36

----------
Test: self-splicing fitness, log relative to wild type (ln ratio); higher = more splicing; Tetrahymena group I intron in knt gene, E. coli kanamycin selection, DiMSum; sequences stand for … in CUCUCU…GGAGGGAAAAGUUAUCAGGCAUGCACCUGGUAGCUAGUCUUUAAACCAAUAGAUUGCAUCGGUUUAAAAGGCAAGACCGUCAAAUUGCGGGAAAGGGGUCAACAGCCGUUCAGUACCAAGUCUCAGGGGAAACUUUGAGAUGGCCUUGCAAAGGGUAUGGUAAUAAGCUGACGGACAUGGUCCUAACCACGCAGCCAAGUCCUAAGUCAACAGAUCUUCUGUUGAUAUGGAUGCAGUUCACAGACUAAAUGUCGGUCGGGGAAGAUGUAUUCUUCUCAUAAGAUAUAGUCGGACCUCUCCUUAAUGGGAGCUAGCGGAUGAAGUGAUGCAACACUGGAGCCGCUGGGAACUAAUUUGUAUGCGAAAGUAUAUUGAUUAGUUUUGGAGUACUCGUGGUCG
Conditions: 30 °C
Label T when self-splicing fitness (ln) is at or above -1; otherwise label F.

*Q* I'd appreciate it if you could say whether `GCACAGCAAUAUUACGAGGG` has self-splicing fitness (ln) at least equal to -1.
*A* F

*Q* I'd appreciate it if you could say whether `GCAAAGCAAUAUUACGGCUU` has self-splicing fitness (ln) at least equal to -1.
*A* F

*Q* I'd appreciate it if you could say whether `AUUAAGCAAUAUUACGAUGA` has self-splicing fitness (ln) at least equal to -1.
*A* T

*Q* I'd appreciate it if you could say whether `GUCUAGCAAUAUUACGAACA` has self-splicing fitness (ln) at least equal to -1.
*A* F

*Q* I'd appreciate it if you could say whether `AACUAGCAAUAUUACGGCUC` has self-splicing fitness (ln) at least equal to -1.
*A* T

*Q* I'd appreciate it if you could say whether `GUGCAGCAAUAUUACGUUGC` has self-splicing fitness (ln) at least equal to -1.
*A* F

*Q* I'd appreciate it if you could say whether `GAUCAGCAAUAUUACGAUAU` has self-splicing fitness (ln) at least equal to -1.
*A* T

Recorded values, source the supplement of paper PMC7877785.
